test: Permeability assay, unidirectional transport, Papp (Example 30, Table 34); assay type: in vitro ADME, canine; details: dog, pH 7.4; MDCK-WT cell monolayers, A-to-B, 3 μM test compound, 37° C., duplicate determinations
READOUT: Papp A→B at 3 μM (×10⁻⁶ cm/s)

> print(dat)
                                   compound  measurement.unit  reported.result
1  COc1cc(CC(=O)N2CC[C@H](N(C)C)C2)ccc1CN1C(=O)N(c2ccc(OC)c(OCCCC3CC3)c2)CC[C@@H]1C [SC0101]        ×10⁻⁶ cm/s              4.7

(P) COc1cc(CC(=O)N2CCOCC2)ccc1CN1CCCN(c2ccc(OC)c(OCCCC3CC3)c2)C1=O [CU0511]
(Q) COc1cc(CC(=O)N[C@@H]2CN(C)C[C@@H]2F)ccc1CN1C(=O)N(c2ccc(OC)c(OCCCC3CC3)c2)CC[C@@H]1C [SC0109]
Task: # min-compare on Papp A→B at 3 μM between P and Q // caller expects the label of the chosen entry
Result: Q
(Q: 5.7 ×10⁻⁶ cm/s, P: 16.6 ×10⁻⁶ cm/s)
